A set of molecules tested on UniProt Q93009, with measured IC50:
Where a name gives a salt, the structure may show the parent alone.

Answered examples (2):
MOLECULE	IC50
C[C@@H]1CN(C2CCNC2)c2c(cc(Cl)cc2-c2ncnn3cc(CN4C(=O)C5C(C4=O)C5(C)C)cc23)O1 (stereo partly drawn) [Example 93, hydrochloride]	< 500 nM
Cc1cc(Cl)cc(-c2ncnn3cc(CN4C(=O)C5C(C4=O)C5(C)C)cc23)c1NCC1(F)CCNCC1 (stereo not drawn) [Example 80, dihydrochloride]	< 500 nM

Query molecule follows.
In: Given the entry O=c1ccn(CC(F)(F)F)c(=O)n1Cc1cc2c(-c3cc(Cl)cc4ccn(CC5(F)CCNCC5)c34)ncnn2c1 [Example 70, dihydrochloride] , report its measured IC50.
Out: < 500 nM

* * *

# TESTED_TARGET: full-length USP7 (Homo sapiens, UniProt Q93009)
# Construct: A 45 μl reaction volume containing full-length USP7 (0.5-1.0 nM)
# Sequence (Q93009 whole entry): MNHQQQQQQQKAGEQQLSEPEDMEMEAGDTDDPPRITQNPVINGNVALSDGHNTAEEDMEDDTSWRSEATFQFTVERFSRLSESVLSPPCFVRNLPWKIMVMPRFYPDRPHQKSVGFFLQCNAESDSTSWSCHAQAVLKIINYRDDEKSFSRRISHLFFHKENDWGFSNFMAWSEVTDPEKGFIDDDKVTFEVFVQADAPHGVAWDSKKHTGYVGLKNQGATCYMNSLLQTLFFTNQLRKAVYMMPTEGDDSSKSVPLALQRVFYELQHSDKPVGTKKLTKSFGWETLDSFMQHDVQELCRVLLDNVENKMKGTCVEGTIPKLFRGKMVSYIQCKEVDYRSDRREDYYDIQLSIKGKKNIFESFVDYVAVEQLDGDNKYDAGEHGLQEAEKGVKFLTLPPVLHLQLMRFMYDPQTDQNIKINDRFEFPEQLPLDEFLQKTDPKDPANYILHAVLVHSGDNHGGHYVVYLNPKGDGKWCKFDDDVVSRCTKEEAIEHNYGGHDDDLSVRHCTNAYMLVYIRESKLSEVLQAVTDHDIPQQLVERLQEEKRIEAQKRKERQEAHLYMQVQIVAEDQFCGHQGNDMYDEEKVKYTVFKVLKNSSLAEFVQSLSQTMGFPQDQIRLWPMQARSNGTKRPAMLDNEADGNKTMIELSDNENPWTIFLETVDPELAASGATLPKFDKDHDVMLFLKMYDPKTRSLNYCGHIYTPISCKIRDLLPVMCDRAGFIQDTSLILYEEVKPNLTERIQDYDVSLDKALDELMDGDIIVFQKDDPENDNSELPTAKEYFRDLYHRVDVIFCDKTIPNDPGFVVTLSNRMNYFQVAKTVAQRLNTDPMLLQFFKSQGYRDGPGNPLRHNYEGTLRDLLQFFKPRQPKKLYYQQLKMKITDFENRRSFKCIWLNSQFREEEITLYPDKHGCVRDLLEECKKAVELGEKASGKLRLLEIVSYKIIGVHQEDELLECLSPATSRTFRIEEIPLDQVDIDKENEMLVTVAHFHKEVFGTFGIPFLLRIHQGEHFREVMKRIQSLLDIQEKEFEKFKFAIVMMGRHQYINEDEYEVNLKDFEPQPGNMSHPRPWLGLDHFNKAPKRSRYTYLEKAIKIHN
# EXPERIMENT_DESCRIPTION: Enzymatic assay to determine % inhibition of USP7 activity at 1 μM test compound (Ubiquitin-Rhodamine 110 cleavage)
# Assay type: biochemical
# STATED_CONDITIONS: 1 μM of the test compound; given where IC50 has not been determined yet; mean of two repetitions
Where a name gives a salt, the structure may show the parent alone.
The following compounds are shown together with reported inhibition at 1 µM values.

Answered examples (5):
COMPOUND	RESULT
Cc1cc(Cl)cc(-c2ncnn3cc(CN4C(=O)C5C(C4=O)C5(C)C)cc23)c1C1=CCNCC1 (stereo not drawn) [Example 84, hydrochloride]	< 20%
CC1(C)C2C(=O)N(Cc3cc4c(-c5cc(C(=O)O)cc6ccn(C[C@@H]7CNCCO7)c56)ncnn4c3)C(=O)C21 (stereo partly drawn) [Example 47, hydrochloride]	< 20%
Cc1cc(Cl)cc(-c2ncnn3cc(CN4C(=O)C5C(C4=O)C5(C)C)cc23)c1O[C@@H]1CN[C@H](C(=O)O)C1 (stereo partly drawn) [Example 7, hydrochloride]	< 20%
CC1(C)C2C(=O)N(Cc3cc4c(-c5cc(Cl)ccc5N5CCNCC5)ncnn4c3)C(=O)C21 (stereo not drawn) [Example 85, hydrochloride]	< 20%
CC1(C)C2C(=O)N(Cc3cc4c(-c5cc(Cl)cc6c5N(C5CCNCC5)CCC6)ncnn4c3)C(=O)C21 (stereo not drawn) [Example 54, hydrochloride]	> 70%

Query compound follows.
In: Given the entry Cc1cc(Cl)cc(-c2ncnn3cc(Cn4c(=O)cc[nH]c4=O)cc23)c1CC1CNC[C@H](C)O1 (single isomer, unassigned) [Example 121, dihydrochloride] , report its measured inhibition at 1 µM.
Out: 50 to 70%

* * *

# TESTED_TARGET: full-length USP7 (Homo sapiens)
# Construct: A 45 μl reaction volume containing full-length USP7 (0.5-1.0 nM)
# EXPERIMENT_DESCRIPTION: Enzymatic assay to determine % inhibition of USP7 activity at 1 μM test compound (Ubiquitin-Rhodamine 110 cleavage)
# Format: biochemical
# STATED_CONDITIONS: 1 μM of the test compound; given where IC50 has not been determined yet; mean of two repetitions
Counter-ions that a name gives are not always drawn.
The following compounds are shown together with reported inhibition at 1 µM values.

Answered examples (5):
COMPOUND	TESTED_TARGET	inhibition at 1 µM
O=C1CN2CCC[C@H]2C(=O)N1Cc1cc2c(-c3cc(Cl)cc4ccn(C[C@@H]5CNCCO5)c34)ncnn2c1 (single isomer, unassigned) [Example 31, dihydrochloride]	full-length USP7 (Homo sapiens)	50 to 70%
Cc1cc(Cl)cc(-c2ncnn3cc(CN4C(=O)C5C(C4=O)C5(C)C)cc23)c1OCCN (stereo not drawn) [Example 9, hydrochloride]	full-length USP7 (Homo sapiens)	50 to 70%
Cc1cc(Cl)cc(-c2ncnn3cc(CN4C(=O)C5C(C4=O)C5(C)C)cc23)c1OC[C@H]1CNCCO1 (stereo partly drawn) [Example 52, hydrochloride]	full-length USP7 (Homo sapiens)	20 to 49%
C[C@H]1CNCC(Cc2c(F)cc(Cl)cc2-c2ncnn3cc(Cn4c(=O)ccn(C)c4=O)cc23)O1 (single isomer, unassigned) [Example 120, hydrochloride]	full-length USP7 (Homo sapiens)	> 70%
Cc1cc(Cl)cc(-c2ncnn3cc(CN4C(=O)C5C(C4=O)C5(C)C)cc23)c1CC1(C)CNCC(C)(C)O1 (stereo not drawn) [Example 72, hydrochloride]	full-length USP7 (Homo sapiens)	> 70%

Query compound follows.
In: Given the entry O=c1ccn(CC(F)(F)F)c(=O)n1Cc1cc2c(-c3cc(Cl)cc4c3N(C3CCNC3)CCC4)ncnn2c1 (stereo not drawn) [Example 64, hydrochloride] , report its measured inhibition at 1 µM.
Out: > 70%

* * *

# TESTED_TARGET: full-length USP7 (Homo sapiens)
# Construct: A 45 μl reaction volume containing full-length USP7 (0.5-1.0 nM)
# EXPERIMENT_DESCRIPTION: Enzymatic assay to determine % inhibition of USP7 activity at 1 μM test compound (Ubiquitin-Rhodamine 110 cleavage)
# Type: biochemical
# STATED_CONDITIONS: 1 μM of the test compound; given where IC50 has not been determined yet; mean of two repetitions
Structures can show the parent of a compound that is named as a salt.
OUTCOME_MEASURE: inhibition at 1 µM

Answered examples (5):
COMPOUND	inhibition at 1 µM
CCOC(=O)c1cc2c(-c3cc(Cl)cc(C)c3O[C@H]3CCCNC3)ncnn2c1 [Example 15, hydrochloride]	20 to 49%
CC1(C)C2C(=O)N(Cc3cc4c(-c5cc(Cl)ccc5N5CCC6(CCCN6)C5)ncnn4c3)C(=O)C21 (stereo not drawn) [Example 91, hydrochloride]	20 to 49%
CC1(C)C2C(=O)N(Cc3cc4c(-c5cc(Cl)cc6ccn(CC7CNCC(F)(F)C7)c56)ncnn4c3)C(=O)C21 (stereo not drawn) [Example 26, dihydrochloride]	20 to 49%
Cc1cc(Cl)cc(-c2ncnn3cc(Cn4c(=O)ccn(C)c4=O)cc23)c1C1=CCNCC1 [Example 88, hydrochloride]	< 20%
Cc1cc(Cl)cc(-c2ncnn3cc(C(N)=O)cc23)c1O[C@H]1CCCNC1 [Example 18, hydrochloride]	< 20%

In: Given the entry Cc1cc(Cl)cc(-c2ncnn3cc(CN4C(=O)C5C(C4=O)C5(C)C)cc23)c1CC1CNCC(CF)O1 (single isomer, unassigned) [Example 43, hydrochloride] , report its measured inhibition at 1 µM.
Out: 20 to 49%

In: Given the entry Cc1cc(Cl)cc(-c2ncnn3cc(CN4C(=O)C5C(C4=O)C5(C)C)cc23)c1OCC1(C)CCCNC1 (single isomer, unassigned) [Example 74, hydrochloride] , report its measured inhibition at 1 µM.
Out: 50 to 70%

In: Given the entry Cc1cc(Cl)cc(-c2ncnn3cc(CN4C(=O)C5C(C4=O)C5(C)C)cc23)c1C(=O)N1C[C@@H](N)[C@@H](C)C1 (stereo partly drawn) [Example 23, 2,2,2-trifluoroacetate] , report its measured inhibition at 1 µM.
Out: 50 to 70%

In: Given the entry Cc1cc(Cl)cc(-c2ncnn3cc(Cn4cc(F)c(=O)n(C)c4=O)cc23)c1C[C@@H]1CNCCO1 (single isomer, unassigned) [Example 98, hydrochloride] , report its measured inhibition at 1 µM.
Out: < 20%

In: Given the entry CC1(C)C2C(=O)N(Cc3cc4c(-c5cc(C(F)(F)F)cc6ccn(CC7(O)CCNCC7)c56)ncnn4c3)C(=O)C21 (stereo not drawn) [Example 19, hydrochloride] , report its measured inhibition at 1 µM.
Out: 50 to 70%

In: Given the entry CC(C)n1ccc(=O)n(Cc2cc3c(-c4cc(Cl)cc5ccn(CC6(F)CCNCC6)c45)ncnn3c2)c1=O [Example 127, hydrochloride] , report its measured inhibition at 1 µM.
Out: > 70%

In: Given the entry CC1(C)C2C(=O)N(Cc3cc4c(-c5cc(C(F)(F)F)cc6ccn(C7CCNC7)c56)ncnn4c3)C(=O)C21 (stereo not drawn) [Example 5, 2,2,2-trifluoroacetate] , report its measured inhibition at 1 µM.
Out: 20 to 49%

In: Given the entry Cc1cc(Cl)cc(-c2ncnn3cc(CN4C(=O)C5C(C4=O)C5(C)C)cc23)c1CC1CN[C@H](C)CO1 (stereo partly drawn) [Example 40, hydrochloride] , report its measured inhibition at 1 µM.
Out: 50 to 70%

* * *

The following molecules are shown together with reported inhibition at 1 µM values.
# TESTED_TARGET: full-length USP7 (Homo sapiens, UniProt Q93009)
# Construct: A 45 μl reaction volume containing full-length USP7 (0.5-1.0 nM)
# EXPERIMENT_DESCRIPTION: Enzymatic assay to determine % inhibition of USP7 activity at 1 μM test compound (Ubiquitin-Rhodamine 110 cleavage)
# Assay type: biochemical
# STATED_CONDITIONS: 1 μM of the test compound; given where IC50 has not been determined yet; mean of two repetitions
Structures can show the parent of a compound that is named as a salt.

MOLECULE	inhibition at 1 µM
Cc1cc(Cl)cc(-c2ncnn3cc(CN4C(=O)C5C(C4=O)C5(C)C)cc23)c1OC1CCNCC1 (stereo not shown) [Example 4, hydrochloride]	50 to 70%
CC1(C)C2C(=O)N(Cc3cc4c(-c5cc(Cl)ccc5N5CC6CNCC6C5)ncnn4c3)C(=O)C21 (stereo not shown) [Example 97, hydrochloride]	< 20%
Cc1cc(Cl)cc(-c2ncnn3cc(CN4C(=O)C5C(C4=O)C5(C)C)cc23)c1NCC1CCNCC1 (stereo not shown) [Example 73, dihydrochloride]	> 70%
Cc1cc(Cl)cc(-c2ncnn3cc(CN4C(=O)C5C(C4=O)C5(C)C)cc23)c1O[C@@H]1CN[C@@H](C)C1 (stereo partly shown) [Example 20, hydrochloride]	20 to 49%

In: Given the entry O=c1cc[nH]c(=O)n1Cc1cc2c(-c3cc(Cl)cc4ccn(CC5(F)CCNCC5)c34)nc(Cl)nn2c1 [Example 123, hydrochloride] , report its measured inhibition at 1 µM.
Out: < 20%

In: Given the entry Cn1ccc(=O)n(Cc2cc3c(-c4cc(Cl)cc(F)c4CC4CNCCO4)ncnn3c2)c1=O (stereo not shown) [Example 116, hydrochloride] , report its measured inhibition at 1 µM.
Out: 50 to 70%

In: Given the entry Cc1cc(Cl)cc(-c2ncnn3cc(Cn4c(=O)ccn(C)c4=O)cc23)c1CC1CNC[C@H](C)O1 (stereo partly shown) [Example 122, dihydrochloride] , report its measured inhibition at 1 µM.
Out: 20 to 49%

In: Given the entry CC1(C)C2C(=O)N(Cc3cc4c(-c5cc(Cl)ccc5N5C[C@H]6CCN[C@H]6C5)ncnn4c3)C(=O)C21 (stereo partly shown) [Example 90, hydrochloride] , report its measured inhibition at 1 µM.
Out: 50 to 70%
